- Tested target: glucagon receptor (GCGR), primary cAMP assay (human, UniProt P47871 26-477)
- Sequence (P47871 26-477): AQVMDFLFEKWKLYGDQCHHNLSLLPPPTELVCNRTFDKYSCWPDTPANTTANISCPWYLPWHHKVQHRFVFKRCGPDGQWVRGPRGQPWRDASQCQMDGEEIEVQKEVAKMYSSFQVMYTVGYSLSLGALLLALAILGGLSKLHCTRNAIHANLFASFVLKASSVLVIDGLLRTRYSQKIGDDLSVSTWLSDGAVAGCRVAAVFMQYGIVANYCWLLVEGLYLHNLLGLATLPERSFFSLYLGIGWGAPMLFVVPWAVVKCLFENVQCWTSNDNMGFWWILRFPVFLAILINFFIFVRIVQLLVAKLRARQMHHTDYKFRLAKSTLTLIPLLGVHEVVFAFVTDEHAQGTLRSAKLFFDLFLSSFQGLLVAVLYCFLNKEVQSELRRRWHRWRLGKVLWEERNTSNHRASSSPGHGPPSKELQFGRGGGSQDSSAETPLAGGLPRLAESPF
- Experimental protocol: cell-based or functional assay
Starred links: 1 amine or outer side, 2 acyl side, 3 side chain; linkers in the order of their positions; H or OH if unused. Non-standard residues stand in square brackets, D forms with d. Groups on a side chain read outwards from the residue. Primed or numbered codes have the meaning given here. No end group written: not given here. *: point of attachment. γGlu = O=C(O)[C@H](CCC(=O)[*:2])N[*:1]; Palmitoyl = CCCCCCCCCCCCCCCC(=O)*; αMeF = C[C@](N)(Cc1ccccc1)C(=O)O; αMeK = C[C@](N)(CCCCN)C(=O)O; Lauroyl = CCCCCCCCCCCC(=O)*; αMeS = C[C@](N)(CO)C(=O)O; PEG2′ = not defined here; Aib = CC(C)(N)C(=O)O
Consider the following binders; for each one, report its Primary assay EC50 (cAMP), n2.
Answers are plain numbers, in nM.

Some solved cases for reference:
binder="H[Aib]EGTFTSDVSK([PEG2′-PEG2′-γGlu-Lauroyl])FLEGEAAEEFIK([PEG2′-PEG2′-γGlu-Lauroyl])WVVEGG-NH2 [SEQ ID NO: 237]" assay_result=22.3
binder="H[Aib]EGS[αMeF]TSDVSK([PEG2′-PEG2′-γGlu-Lauroyl])FLEGEAAEEFIK([PEG2′-PEG2′-γGlu-Lauroyl])FVVEGG-NH2 [SEQ ID NO: 241]" assay_result=22.5
binder="H[Aib]EGTFTSDVSK([PEG2′-PEG2′-γGlu-Lauroyl])YLEGEAAEEFIK([PEG2′-PEG2′-γGlu-Lauroyl])WVVEGG-NH2 [SEQ ID NO: 236]" assay_result=22.2
binder="H[Aib]EGS[αMeF]TSDV[αMeS]SK([PEG2′-PEG2′-γGlu-Lauroyl])LEGEAA[αMeK]EFIAWK([PEG2′-PEG2′-γGlu-Lauroyl])VEGG-NH2 [SEQ ID NO: 264]" assay_result=22.6
binder="H[Aib]EGS[αMeF]TSDV[αMeS]SK([PEG2′-PEG2′-γGlu-Palmitoyl])LEGEAA[αMeK]EFIAK([PEG2′-PEG2′-γGlu-Palmitoyl])VVEGG-NH2 [SEQ ID NO: 266]" assay_result=22.2

Provide reported Primary assay EC50 (cAMP), n2 for each item, in the same order as listed.
1. H[Aib]EGS[αMeF]TSDVSK([PEG2′-PEG2′-γGlu-Lauroyl])YLEGEAA[αMeK]EFIK([PEG2′-PEG2′-γGlu-Lauroyl])WVVEGG-NH2 [SEQ ID NO: 249]
2. H[Aib]EGTFTSDVSK([PEG2′-PEG2′-γGlu-Palmitoyl])YLEGEAAEEFIK([PEG2′-PEG2′-γGlu-Palmitoyl])FVVEGG-NH2 [SEQ ID NO: 244]
3. H[Aib]EGS[αMeF]TSDK([PEG2′-PEG2′-γGlu-Palmitoyl])SSYLEGEAA[αMeK]EFIAK([PEG2′-PEG2′-γGlu-Palmitoyl])VVEGG-NH2 [SEQ ID NO: 260]
4. H[Aib]EGS[αMeF]TSDK([PEG2′-PEG2′-γGlu-Lauroyl])SSYLEGEAA[αMeK]EFIAK([PEG2′-PEG2′-γGlu-Lauroyl])VVEGG-NH2 [SEQ ID NO: 257]
5. H[Aib]EGS[αMeF]TSDV[αMeS]SYK([PEG2′-PEG2′-γGlu-Lauroyl])EGEAA[αMeK]EFIAK([PEG2′-PEG2′-γGlu-Lauroyl])VVEGG-NH2 [SEQ ID NO: 269]
6. H[Aib]EGS[αMeF]TSDV[αMeS]SK([PEG2′-PEG2′-γGlu-Lauroyl])LEGEAA[αMeK]EFIAK([PEG2′-PEG2′-γGlu-Lauroyl])VVEGG-NH2 [SEQ ID NO: 263]
7. H[Aib]EGS[αMeF]TSDVSK([PEG2′-PEG2′-γGlu-Palmitoyl])FLEGEAAEEFIK([PEG2′-PEG2′-γGlu-Palmitoyl])FVVEGG-NH2 [SEQ ID NO: 247]

Return:
1: 22.1; 2: 21.6; 3: 21.9; 4: 22.8; 5: 22.8; 6: 21.5; 7: 21.6
